B1: tRNA (parent)
chain: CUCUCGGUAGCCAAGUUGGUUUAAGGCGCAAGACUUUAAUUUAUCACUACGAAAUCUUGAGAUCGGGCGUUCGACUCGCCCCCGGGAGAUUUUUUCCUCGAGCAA

Variants of: B1
Assay Comment: nonsense suppression (GFP-seq) (ratio to wild type); higher = more function; SUP4oc tRNA, yeast GFP reporter sort-seq
Variants at the floor of the assay were thinned out.
Binary call on nonsense suppression: True from 0.3 upward, False beneath that.

[
  {
    "Mutation": "U21G G28C",
    "Class Label": "False"
  },
  {
    "Mutation": "U22G C75A",
    "Class Label": "True"
  },
  {
    "Mutation": "U4G A54U",
    "Class Label": "True"
  },
  {
    "Mutation": "A24C G88A",
    "Class Label": "False"
  },
  {
    "Mutation": "C1A U4G C11U",
    "Class Label": "False"
  },
  {
    "Mutation": "A24G A54U",
    "Class Label": "False"
  },
  {
    "Mutation": "U4C A31G G65A",
    "Class Label": "False"
  },
  {
    "Mutation": "G61C G73A",
    "Class Label": "False"
  },
  {
    "Mutation": "A30G U55G U63G C64A",
    "Class Label": "False"
  },
  {
    "Mutation": "C29U A30C",
    "Class Label": "False"
  },
  {
    "Mutation": "A23U A30U",
    "Class Label": "False"
  },
  {
    "Mutation": "A9G U22G",
    "Class Label": "False"
  },
  {
    "Mutation": "A14U U57G",
    "Class Label": "False"
  },
  {
    "Mutation": "U63G G78A",
    "Class Label": "False"
  },
  {
    "Mutation": "U21G A54C",
    "Class Label": "True"
  },
  {
    "Mutation": "A31C G84U",
    "Class Label": "False"
  },
  {
    "Mutation": "C5U G26C G65C U76A",
    "Class Label": "False"
  },
  {
    "Mutation": "A60U U63G",
    "Class Label": "True"
  },
  {
    "Mutation": "U4C U21C G67A",
    "Class Label": "False"
  },
  {
    "Mutation": "C29G G32A G67U C75A",
    "Class Label": "False"
  },
  {
    "Mutation": "A30G A60G",
    "Class Label": "False"
  },
  {
    "Mutation": "G59U A62C A89G",
    "Class Label": "False"
  }
]
